Numbers sourced from ChEMBL document CHEMBL1132614.

Tested on: LS174T
MEASUREMENT_NOTES: The compound was evaluated for the cytotoxicity with the compound alone against LS174T cells.
Type: functional, cell-based
STUDY_CONDITIONS: Homo sapiens
MEASURED_METRIC: IC50 (µM)

[
  {
    "MOLECULE": "O=C(O)CCC(NC(=O)Oc1ccc(N(CCCl)CCCl)cc1)C(=O)O (stereo unspecified)",
    "RECORDED_NUMBER": 23.2
  }
]

---

MEASUREMENT_NOTES: The compound was evaluated for the apparent Vmax through Lineweaver-Burke Plot of MTX turnover by CPG2 at a concentration of 0.5 (uM).
Assay type: ADME

[
  {
    "COMPOUND_STRUCTURE": "COc1ccc(SC(=O)N[C@H](CCC(=O)O)C(=O)O)cc1",
    "Vmax, µM/min": 47.7
  }
]

---

MEASUREMENT_NOTES: The compound was evaluated for the apparent Vmax through Lineweaver-Burke Plots of MTX turnover by CPG2 at a concentration of 0 (uM).
Assay type: ADME

[
  {
    "COMPOUND_STRUCTURE": "COc1ccc(SC(=O)N[C@H](CCC(=O)O)C(=O)O)cc1",
    "Vmax, µM/min": 80
  }
]
